The reported numbers originate from patent US20130059879A1.

Assay: Cell permeability in MDR1-MDCK monolayers
Type: in vitro ADME
Conditions: dog, MDR1-MDCK cells, basal to apical, pH 7.4
MEASURED_PARAMETER: Papp B→A at 2 h (×10⁻⁶ cm/s)

- Nc1ccc(C(=O)c2cc3c(ccc4ccccc43)[nH]2)cc1: 17.3

###

Tested on: Hep G2
Experiment: Cell proliferation, MTT assay, 72 hours
Assay type: cell-based
Details: Homo sapiens, HepG2
Protocol: The ability of the compounds described herein to kill or inhibit the proliferation of cancer cells was measured using either the MTT assay, or the Alamar Blue assay, or the Cell Titer Glow® assay using 48 or 72 hours exposure. […] The procedures are briefly described below. Cells of the desired tumor cell line were plated at 2×10^5 cells/ml in 96 well plates. Twice the indicated concentrations of the compounds of the invention were added to cells the following day in an equal volume of media. […]
MEASURED_PARAMETER: IC50

• O=C(c1ccncc1)c1cc2c(ccc3ccccc32)[nH]1 = 5.5 µM

###

Test: Solubility in solvents and excipients, 1 hour at room temperature, HPLC
Format: physicochemical
Details: ethanol, organic solvent or mixture, thermodynamic from solid; EtOH, 1 hour at room temperature; read-out: Solubility EtOH
MEASURED_PARAMETER: solubility at 1 h (µg/mL)

• Nc1ccc(C(=O)c2cc3c(ccc4ccccc43)[nH]2)cc1 [ACT-PFK-112] = 7400
• O=C(c1ccncc1)c1cc2c(ccc3ccccc32)[nH]1 [ACT-PFK-095] = 1600
• COc1cccc(C(=O)c2cc3c(cc(F)c4ccccc43)[nH]2)c1 [ACT-PFK-116] = 1300
• COc1ccccc1C(=O)c1cc2c(ccc3ccccc32)[nH]1 [ACT-PFK-098] = 4600
• COc1cc(C(=O)c2cc3c(cc(F)c4ccccc43)[nH]2)ccc1O [ACT-PFK-119] = 1000
• COc1cc(C(=O)c2cc3c(ccc4ccccc43)[nH]2)ccc1O [ACT-PFK-108] = 9900
• O=C(c1ccncc1)c1cc2c(cc(F)c3ccccc32)[nH]1 [ACT-PFK-118] = 200
• COc1cccc(C(=O)c2cc3c(ccc4ccccc43)[nH]2)c1 [ACT-PFK-096] = 2800

###

# solubility at 1 h values compiled below
Experiment: Solubility in solvents and excipients, 1 hour at room temperature, HPLC
Type: physicochemical
Details: organic solvent or mixture, thermodynamic from solid; 1:1 cremophor EL-P:ethanol mixture, 1 hour at room temperature; read-out: Solubility Cre:EtOH
MEASURED_PARAMETER: solubility at 1 h

• O=C(c1ccncc1)c1cc2c(ccc3ccccc32)[nH]1 = 10 mg/mL
• COc1ccccc1C(=O)c1cc2c(ccc3ccccc32)[nH]1 = 29 mg/mL
• COc1cc(C(=O)c2cc3c(cc(F)c4ccccc43)[nH]2)ccc1O = 6.1 mg/mL
• Nc1ccc(C(=O)c2cc3c(ccc4ccccc43)[nH]2)cc1 = 37.6 mg/mL
• COc1cc(C(=O)c2cc3c(ccc4ccccc43)[nH]2)ccc1O = 78.1 mg/mL
• COc1cccc(C(=O)c2cc3c(ccc4ccccc43)[nH]2)c1 = 29.7 mg/mL
• O=C(c1ccncc1)c1cc2c(cc(F)c3ccccc32)[nH]1 = 1 mg/mL
• COc1cccc(C(=O)c2cc3c(cc(F)c4ccccc43)[nH]2)c1 = 8.6 mg/mL
